# Tested on: H1N1 (influenza A/New Caledonia/20/99)
# PROCEDURE_SUMMARY: Antiviral effect on A549 cells infected with H1N1
# Assay type: cell-based, H1N1 A/New Caledonia/20/99 virus
# ASSAY_CONDITIONS: Influenza A virus, H1N1, A549, 48 h, Human A549 cells, MOI of 0.1, 48 h post-infection, MUNANA hydrolysis readout
MEASUREMENT_TYPE: IC50 (nM)
Enter your answer as a number in nM; do not include the unit.

Inquiry: Find the measured IC50: item CC(C)(C)C1CCc2c(sc(NC(=O)c3ccc(N4CCOCC4)cc3)c2C(=O)O)C1 (centres unmarked) , target or system H1N1 (influenza A/New Caledonia/20/99).
Reply text: 70

Inquiry: How about CC(C)(C)C1CCc2c(sc(NC(=O)Cc3ccccc3)c2C(=O)O)C1 (centres unmarked) ?
Reply text: 2800

Inquiry: How about O=C(Nc1sc2c(c1C(=O)O)CCC(c1ccc(O)cc1)C2)c1ccccc1 (centres unmarked) ?
Reply text: 2370

Inquiry: How about CC(C)(C)C1CCc2c(sc(NC(=O)c3ccccc3C(F)(F)F)c2C(=O)O)C1 (centres unmarked) ?
Reply text: 800

Inquiry: How about "COc1ccc(C(=O)Nc2sc3c(c2C(=O)O)CCN(c2ccc(F)cc2C)C3)c(F)c1" ?
Reply text: 410

Inquiry: How about O=C(Nc1sc2c(c1C(=O)O)C(c1ccccc1)CCC2)c1ccc(OC(F)F)cc1 (centres unmarked) ?
Reply text: 1170

Inquiry: How about Cc1cccc(C)c1C(=O)Nc1sc2c(c1C(=O)O)CCC(C(C)(C)C)C2 (centres unmarked) ?
Reply text: 1950

Inquiry: How about "COc1ccc(C(=O)Nc2sc3c(c2C(=O)O)CC(C)(C)OC3)cc1OC" ?
Reply text: 2200

Inquiry: How about COC(=O)CCCCCOc1ccc(C(=O)Nc2sc3c(c2C(=O)O)CCC(C(C)(C)C)C3)cc1 (centres unmarked) ?
Reply text: 510

Inquiry: How about "COC1CN(c2ccc(C(=O)Nc3sc4c(c3C(=O)O)CCC4)cc2)C1" ?
Reply text: 380

Inquiry: How about CC1CCCc2sc(NC(=O)c3cccc(OC(F)F)c3)c(C(=O)O)c21 (centres unmarked) ?
Reply text: 970

Inquiry: How about COCCOc1ccc(C(=O)Nc2sc3c(c2C(=O)O)CCC(c2ccccc2)C3)cc1 (centres unmarked) ?
Reply text: 38

Inquiry: How about CC(C)(C)C(=O)Nc1sc2c(c1C(=O)O)CCC(c1ccccc1)C2 (centres unmarked) ?
Reply text: 1100

Inquiry: How about Cc1ccccc1C(=O)Nc1sc2c(c1C(=O)O)CCC(c1ccccc1)C2 (centres unmarked) ?
Reply text: 338

Inquiry: How about COc1ccccc1C(=O)Nc1sc2c(c1C(=O)O)CCC(C(C)(C)C)C2 (centres unmarked) ?
Reply text: 1050

Inquiry: How about CC1CCCCC1C(=O)Nc1sc2c(c1C(=O)O)CCC(C(C)(C)C)C2 (centres unmarked) ?
Reply text: 590

Inquiry: How about CC(C)(C)C1CCc2c(sc(NC(=O)c3ccc(OC(F)(F)F)cc3)c2C(=O)O)C1 (centres unmarked) ?
Reply text: 38.5

Inquiry: How about "Cc1ccccc1C(=O)Nc1sc2cc(C(C)(C)C)ccc2c1C(=O)O" ?
Reply text: 1370

Inquiry: How about CC(C)(C)C1CCc2c(sc(NC(=O)c3ccccn3)c2C(=O)O)C1 (centres unmarked) ?
Reply text: 170

Inquiry: How about "Cc1ccccc1C(=O)Nc1sc2c(c1C(=O)O)CCC2" ?
Reply text: 2350

Inquiry: How about COc1ccc(C(=O)Nc2sc3c(c2C(=O)O)C(C)CCC3)cc1OC (centres unmarked) ?
Reply text: 339

Inquiry: How about O=C(Nc1sc2c(c1C(=O)O)CCC(c1ccccc1)C2)c1ccc(O)cc1 (centres unmarked) ?
Reply text: 410

Inquiry: How about CC(C)(C)OC(=O)NCCCOc1ccc(C(=O)Nc2sc3c(c2C(=O)O)CCC(C(C)(C)C)C3)cc1 (centres unmarked) ?
Reply text: 140
